The measured values listed here are drawn from patent US20240398942A1.

Each entry below carries its recorded Kd.
# assay-system: T1, cynomolgus monkey CD40-his protein (Acro biosystems, Cat. No. CD0-C52H6) (cynomolgus monkey, UniProt G7PG38 21-193)
# T1 construct: Bought protein; not shown: His tag
# method-summary: SPR (Biacore T200), antibody captured on anti-human IgG chip, CD40-his as analyte, 1:1 fit
Record the value in nM, omitting the unit from your answer.

Worked cases, answers included:
humanized antibody huC1H1-V1 (antibody, human IgG2, kappa, V domains shown, Human IgG2 / kappa) VH: EVQLVESGGGLVKPGGSLRLSCAASGFTFSNYGISWVRQAPGKGLEWVASISSGGDNTYYPDNVKGRFTISRDNAKNSLYLQMNSLRAEDTAVYYCARAGEKAMDYWGQGTLVTVSS VL: EIVLTQSPATLSLSPGERATLSCRASQTINNNLHWYQQKPGQAPRLLIKYASQSISGIPARFSGSGSGTDFTLTISSLEPEDFAVYFCQQFSSWPLTFGGGTKVEIKR | 1.11
humanized antibody huC1H1-V2 (antibody, human IgG2, kappa, V domains shown, Human IgG2 / kappa) VH: EVQLVESGGGLVKPGGSLRLSCAASGFTFSNYGISWVRQAPGKGLEWVSSISSGGDNTYYPDNVKGRFTISRDNAKNSLYLQMNSLRAEDTAVYYCARAGEKAMDYWGQGTLVTVSS VL: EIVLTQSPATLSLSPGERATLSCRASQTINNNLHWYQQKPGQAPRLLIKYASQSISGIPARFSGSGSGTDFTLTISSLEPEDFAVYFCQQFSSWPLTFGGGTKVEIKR | 1.07
chimeric antibody C1H1 (antibody, human IgG1, kappa, V domains shown, also called Chimeric C1H1) VH: EVKLVESGGGLVKPGASLKLSCAASGFTFSNYGISWVRQTSDKRLEWVASISSGGDNTYYPDNVKGRFTISRENAKNTLYLQMSSLKSEDTALYYCARAGEKAMDYWGQGTSVTVSS VL: DIVLTQSPVTLSVTPGDSVSLSCRASQTINNNLHWYQQKSHESPRLLIKYASQSISGIPSRFSGSGSGTDFTLSINSVETEDFGIYFCQQFSSWPLTFGAGTKLELKR | 0.846

Asked: Please look up its Kd: BM1 (dacetuzumab) (antibody, human IgG1, kappa, V domains shown, Benchmark antibody, prepared in-house; also called CD40-BM1; benchmark) VH: EVQLVESGGGLVQPGGSLRLSCAASGYSFTGYYIHWVRQAPGKGLEWVARVIPNAGGTSYNQKFKGRFTLSVDNSKNTAYLQMNSLRAEDTAVYYCAREGIYWWGQGTLVTVSS VL: DIQMTQSPSSLSASVGDRVTITCRSSQSLVHSNGNTFLHWYQQKPGKAPKLLIYTVSNRFSGVPSRFSGSGSGTDFTLTISSLQPEDFATYFCSQTTHVPWTFGQGTKVEIKR
Given back: 9.68
